- Measured target: TRAP1 enzyme (Homo sapiens)
- Construct: 150 nM Trap1 enzyme was incubated with various concentrations of the test compound
- Procedure summary: ADP Glo assay of TRAP1 ATPase activity
- Format: biochemical
- Condition set: maximal percent activation; read-out: ADP GLO DRC: Mean Emax
Emax values, listed per item
Observed property: Emax

INSERT INTO results (cpd_smiles, observed_property, measured_result) VALUES
  ('COc1ncc(NC(=O)c2csc(-c3ccccc3)n2)cc1S(=O)(=O)Nc1c(C#N)cnn1C', 'Emax', '119 to 159%'),
  ('COc1ncc(NC(=O)c2csc(-c3ccccc3)n2)cc1S(=O)(=O)Nc1ccccc1C', 'Emax', '119 to 159%'),
  ('COc1ncc(NC(=O)c2ncc(-c3ccccc3)o2)cc1S(=O)(=O)Nc1c(C#N)cccc1C(F)(F)F', 'Emax', '200 to 300%'),
  ('COc1ncc(NC(=O)c2csc(-c3ccccc3)n2)cc1S(=O)(=O)Nc1cc(C(F)(F)F)ncc1C', 'Emax', '200 to 300%'),
  ('COc1ncc(NC(=O)c2csc(C(C)C)n2)cc1S(=O)(=O)Nc1c(C)cccc1C', 'Emax', '160 to 199%'),
  ('COc1ncc(NC(=O)c2csc(-c3ccccc3)n2)cc1S(=O)(=O)Nc1c(C)cc(Cl)cc1C', 'Emax', '119 to 159%'),
  ('COc1ncc(NC(=O)c2coc(-c3ccccc3)n2)cc1S(=O)(=O)Nc1cc(F)c(F)cc1C', 'Emax', '160 to 199%');

====

activation at 50 µM values, listed per item
- Measured target: TRAP1 enzyme (Homo sapiens, UniProt Q12931)
- Construct: 150 nM Trap1 enzyme was incubated with various concentrations of the test compound
- Sequence (Q12931 60-704): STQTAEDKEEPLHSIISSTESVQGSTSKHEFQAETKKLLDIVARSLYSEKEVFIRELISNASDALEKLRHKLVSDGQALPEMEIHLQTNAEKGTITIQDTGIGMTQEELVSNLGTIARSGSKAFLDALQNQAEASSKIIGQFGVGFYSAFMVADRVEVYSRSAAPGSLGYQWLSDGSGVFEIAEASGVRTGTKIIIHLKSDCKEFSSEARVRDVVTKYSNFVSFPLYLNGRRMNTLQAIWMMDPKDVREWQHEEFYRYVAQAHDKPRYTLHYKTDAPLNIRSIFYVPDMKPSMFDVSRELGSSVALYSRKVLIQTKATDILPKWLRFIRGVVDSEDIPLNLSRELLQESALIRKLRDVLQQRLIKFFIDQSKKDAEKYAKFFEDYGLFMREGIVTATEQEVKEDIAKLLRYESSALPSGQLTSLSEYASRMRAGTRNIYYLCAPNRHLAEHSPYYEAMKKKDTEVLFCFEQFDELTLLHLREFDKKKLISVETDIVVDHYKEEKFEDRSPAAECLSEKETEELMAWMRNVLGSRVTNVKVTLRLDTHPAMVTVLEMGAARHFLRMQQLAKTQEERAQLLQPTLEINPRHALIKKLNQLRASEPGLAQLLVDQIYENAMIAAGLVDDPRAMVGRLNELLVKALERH
- Procedure summary: ADP Glo assay of TRAP1 ATPase activity
- Format: biochemical
- Condition set: 1 h; compound concentration 50 μM; read-out: ADP-Glo Percent Activation at 50 μM
Observed property: activation at 50 µM

INSERT INTO results (cpd_smiles, measured_result) VALUES
  ('COc1ncc(NC(=O)c2ccsn2)cc1S(=O)(=O)Nc1c(C)cccc1C', '120 to 150%'),
  ('COc1ncc(NC(=O)c2nn(C)c3c2CCC3)cc1S(=O)(=O)Nc1c(C)cccc1C', '151 to 180%'),
  ('COc1ncc(NC(=O)c2cnn(C)c2Cl)cc1S(=O)(=O)Nc1c(C)cccc1C', '151 to 180%'),
  ('COc1ncc(NC(=O)c2ccnc(N(C)C)n2)cc1S(=O)(=O)Nc1c(C)cccc1C', '181 to 352%'),
  ('COc1ncc(NC(=O)c2sccc2C(F)(F)F)cc1S(=O)(=O)Nc1c(C)cccc1C', '181 to 352%'),
  ('COc1ncc(NC(=O)c2cccc(C(=O)N(C)C)c2)cc1S(=O)(=O)Nc1c(C)cccc1C', '151 to 180%'),
  ('COc1ncc(NC(=O)c2cn(C(C)C)nn2)cc1S(=O)(=O)Nc1c(C)cccc1C', '120 to 150%'),
  ('COc1ncc(NC(=O)c2cnn(C)c2OC)cc1S(=O)(=O)Nc1c(C)cccc1C', '120 to 150%'),
  ('COc1ncc(NC(=O)c2cccc3c2C(=O)NC3)cc1S(=O)(=O)Nc1c(C)cccc1C', '151 to 180%'),
  ('COc1ncc(NC(=O)c2ccc(S(=O)(=O)N(C)C)cc2)cc1S(=O)(=O)Nc1c(C)cccc1C', '151 to 180%'),
  ('COc1ncc(NC(=O)c2csnc2C)cc1S(=O)(=O)Nc1c(C)cccc1C', '120 to 150%'),
  ('COc1ccnc(C(=O)Nc2cnc(OC)c(S(=O)(=O)Nc3c(C)cccc3C)c2)c1', '181 to 352%'),
  ('COc1ncc(NC(=O)c2cc(C(F)(F)F)n[nH]2)cc1S(=O)(=O)Nc1c(C)cccc1C', '151 to 180%'),
  ('COc1ncc(NC(=O)c2ccc3c(c2)nnn3C)cc1S(=O)(=O)Nc1c(C)cccc1C', '120 to 150%'),
  ('COc1ncc(NC(=O)c2ccc(C#N)cc2)cc1S(=O)(=O)Nc1c(C)cccc1C', '181 to 352%'),
  ('COc1ncc(NC(=O)c2ccn[nH]2)cc1S(=O)(=O)Nc1c(C)cccc1C', '120 to 150%');

====

EC50 values, listed per item
- Measured target: TRAP1 enzyme (Homo sapiens, UniProt Q12931)
- Construct: 150 nM Trap1 enzyme was incubated with various concentrations of the test compound
- Sequence (Q12931 60-704): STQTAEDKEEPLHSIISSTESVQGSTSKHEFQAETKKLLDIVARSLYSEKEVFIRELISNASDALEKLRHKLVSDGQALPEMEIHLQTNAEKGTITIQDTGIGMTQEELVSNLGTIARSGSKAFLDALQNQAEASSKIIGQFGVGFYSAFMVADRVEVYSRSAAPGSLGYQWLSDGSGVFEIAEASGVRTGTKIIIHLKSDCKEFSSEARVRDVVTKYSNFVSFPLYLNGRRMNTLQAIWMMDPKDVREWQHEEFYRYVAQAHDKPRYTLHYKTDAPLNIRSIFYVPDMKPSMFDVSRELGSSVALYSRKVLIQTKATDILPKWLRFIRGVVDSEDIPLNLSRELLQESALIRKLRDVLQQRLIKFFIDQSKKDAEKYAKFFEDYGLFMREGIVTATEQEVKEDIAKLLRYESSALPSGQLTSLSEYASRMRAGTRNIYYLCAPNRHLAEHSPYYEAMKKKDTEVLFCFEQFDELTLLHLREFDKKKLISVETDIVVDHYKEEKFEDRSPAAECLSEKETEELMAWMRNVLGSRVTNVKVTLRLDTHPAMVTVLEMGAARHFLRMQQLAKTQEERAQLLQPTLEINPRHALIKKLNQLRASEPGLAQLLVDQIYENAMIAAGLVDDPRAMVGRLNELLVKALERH
- Procedure summary: Malachite green phosphate assay of TRAP1 ATPase activity
- Type: biochemical
- Condition set: concentration for half maximal activation; read-out: Malachite Green Fluor DRC: GeoMean EC50
Observed property: EC50

INSERT INTO assay_data (cpd_smiles, observed_property, measured_result) VALUES
  ('Cc1cccc(C)c1NS(=O)(=O)c1cncc(NC(=O)c2cnc(-c3ccccc3)[nH]2)c1', 'EC50', '20 to 100 µM'),
  ('COc1ncc(NC(=O)c2cnc(-c3ccccc3)o2)cc1S(=O)(=O)Nc1ccc(C(F)(F)F)cc1', 'EC50', '20 to 100 µM'),
  ('COc1ncc(NC(=O)c2ncc(-c3ccccc3)o2)cc1S(=O)(=O)Nc1ccc(C(F)(F)F)cc1', 'EC50', '20 to 100 µM'),
  ('O=C(Nc1cccc(S(=O)(=O)Nc2ccc(Cl)cc2)n1)c1cnc(-c2ccccc2)[nH]1', 'EC50', '20 to 100 µM'),
  ('COc1ncc(NC(=O)c2ncc(-c3ccccc3)o2)cc1S(=O)(=O)Nc1ccc(Cl)cc1', 'EC50', '10 to 20 µM'),
  ('COc1ncc(NC(=O)c2ncc(-c3ccccc3)o2)cc1S(=O)(=O)Nc1c(Cl)cccc1Cl', 'EC50', '20 to 100 µM');

====

- Measured target: TRAP1 enzyme (Homo sapiens)
- Construct: 150 nM Trap1 enzyme was incubated with various concentrations of the test compound
- Procedure summary: ADP Glo assay of TRAP1 ATPase activity
- Type: biochemical
- Condition set: 1 h; compound concentration 50 μM; read-out: ADP-Glo Percent Activation at 50 μM
activation at 50 µM values, listed per item
Observed property: activation at 50 µM

INSERT INTO assay_data (cpd_smiles, observed_property, measured_result) VALUES
  ('COc1ncc(NC(=O)c2cnn(CC(F)(F)F)c2)cc1S(=O)(=O)Nc1c(C)cccc1C', 'activation at 50 µM', '120 to 150%'),
  ('COc1ncc(NC(=O)c2cccc(CO)c2)cc1S(=O)(=O)Nc1c(C)cccc1C', 'activation at 50 µM', '181 to 352%'),
  ('COc1ncc(NC(=O)c2cccc3c2CCC3)cc1S(=O)(=O)Nc1c(C)cccc1C', 'activation at 50 µM', '151 to 180%'),
  ('COc1ncc(NC(=O)c2ccc(-n3nc(C)nc3C)cc2)cc1S(=O)(=O)Nc1c(C)cccc1C', 'activation at 50 µM', '181 to 352%'),
  ('COc1ncc(NC(=O)c2cc(C)n(C)n2)cc1S(=O)(=O)Nc1c(C)cccc1C', 'activation at 50 µM', '120 to 150%'),
  ('COc1ncc(NC(=O)c2cccnc2N2CCOCC2)cc1S(=O)(=O)Nc1c(C)cccc1C', 'activation at 50 µM', '181 to 352%'),
  ('COc1ncc(NC(=O)c2ccc(NC(=O)C(C)(C)C)cc2)cc1S(=O)(=O)Nc1c(C)cccc1C', 'activation at 50 µM', '151 to 180%'),
  ('COc1cccnc1C(=O)Nc1cnc(OC)c(S(=O)(=O)Nc2c(C)cccc2C)c1', 'activation at 50 µM', '120 to 150%');
